# Tested on: Cryptosporidium parvum
# protocol.notes: qRT-PCR assay of the growth of C. parvum in vitro in HCT-8 host cells (primary and secondary screening, EC50)
# Type: cell-based
# assay.context: primary screening at 10 uM
A collection of molecules and their measured Inhibition (%)
Respond with the bare value in %.

Solved cases below.
C=CCCCCCCCCCCCc1ccco1 [AVOCADENOFURAN]	-21.47
C[C@H]1O[C@H](OC2[C@@H](O)[C@@H](O)C(O)[C@H](O)[C@H]2O)[C@@H](N)C[C@@H]1N=C(N)C(=O)O.Cl (stereo partly drawn) [KASUGAMYCIN HYDROCHLORIDE]	47.53
Br.CN1[C@H]2C[C@H](OC(=O)[C@H](CO)c3ccccc3)C[C@@H]1[C@@H](O)C2 [ANISODAMINE HYDROBROMIDE]	5.51
OC[C@H]1O[C@@H](O[C@H]2[C@H](O)[C@@H](O)[C@H](O)O[C@@H]2CO)[C@H](O)[C@@H](O)[C@@H]1O [CELLOBIOSE (D[+])]	-5.56
C[C@@H]1C[C@H](O)[C@@]2(O)[C@]13CC(=O)OC[C@@]2(C)[C@@](C)(O)C(=O)C3 [PSEUDO-ANISATIN]	-5.73

# input for lookup
The recorded Inhibition (%) for COC(=O)/C(C)=C\CC12OC(C)(C)C3CC(C=C4C(=O)c5c(c(CCC(C)(C)Cl)c6c(c5OC)C5CC(C)(CCC5=C(C)C)O6)OC431)C2=O (stereo not drawn) [DIMETHYL GAMBOGINATE] is 93.45

###

A collection of compounds and their measured cytotoxicity at 41 h, 10 µM
# protocol.notes: in vitro
# assay.context: human
Respond with the bare value in %.

COc1cc(C(C)=O)cc(OC)c1O	-4

# input for lookup
The recorded cytotoxicity at 41 h, 10 µM for Cc1cccc2c3c(ccc12)C1=C(C(=O)C3=O)[C@@H](C)CO1 [Dihydrotanshinone I] is 0.2

###

# System: HCT-8 host cells (Hs18S)
# assay.context: human, 41 h, 10 μM
A collection of compounds and their measured Hs18S ΔCT

COc1ccc2c(c1)OC[C@@H](Cc1ccc(OC)c(OC)c1)[C@@H]2O [3-DESHYDROXYSAPPANOL TRIMETHYL ETHER]	0.05

The recorded Hs18S ΔCT for CC(=O)Oc1ccc(O)cc1 [4-ACETOXYPHENOL] is 0.21

The recorded Hs18S ΔCT for CC(=O)O[C@H]1CC[C@@]2(C)[C@@H](CC[C@@H]3[C@@H]2CC(=O)[C@]2(C)[C@@H]4[C@H](C[C@@H]32)O[C@]2(CC[C@@H](C)CO2)[C@H]4C)C1 [HECOGENIN ACETATE] is -0.05

The recorded Hs18S ΔCT for C[C@]12CC[C@@H]3c4ccc(O)cc4CC[C@H]3[C@@H]1C[C@@H](O)[C@@H]2O [ESTRIOL] is -0.12

###

A collection of compounds and their measured Cytotoxicity (%)
# Test system: HCT-8 host cells (Hs18S)
# assay.context: primary screening at 10 uM, from Hs18S ΔCT
Respond with the bare value in %.

Solved cases below.
CS(C)(=O)=O	46.5
COc1cc2oc3cc(OC)c(OC)c(CC=C(C)C)c3c(=O)c2c(O)c1CC=C(C)C	7.7
CC(C)CCC[C@@H](C)[C@H]1CC[C@H]2C3=CC[C@H]4C[C@@H](O)CC[C@]4(C)[C@H]3CC[C@]12C	21.4
OC[C@@H](O)C(O)[C@H](O)CO	-2.6
CC1=CC(=O)[C@H]2C(C)(C)CCC[C@]2(C)[C@@]1(O)CCc1ccoc1	39.6
CC(=O)O[C@@H]1CC2C(C)(CC[C@H](O)C2(C)C)C2CC[C@]3(C)C(=CC(=O)O[C@H]3c3ccoc3)C21C (stereo partly drawn) [3beta-HYDROXYDEOXODIHYDRODEOXYGEDUNIN]	-19.7
C=C1CC/C=C(\C)CC[C@@H]2[C@@H]1CC2(C)C [CARYOPHYLLENE [t(-)]]	20.0

The recorded Cytotoxicity (%) for Br.CN1[C@H]2C[C@H](OC(=O)[C@H](CO)c3ccccc3)C[C@@H]1[C@@H](O)C2 [ANISODAMINE HYDROBROMIDE] is -32.6

Data credit: paper PMC6736568
